Exercise: for every item that follows, state its recorded pKi.
tgt: purified human Factor XIa (Homo sapiens (Human))
Sequence (P03951 388-625): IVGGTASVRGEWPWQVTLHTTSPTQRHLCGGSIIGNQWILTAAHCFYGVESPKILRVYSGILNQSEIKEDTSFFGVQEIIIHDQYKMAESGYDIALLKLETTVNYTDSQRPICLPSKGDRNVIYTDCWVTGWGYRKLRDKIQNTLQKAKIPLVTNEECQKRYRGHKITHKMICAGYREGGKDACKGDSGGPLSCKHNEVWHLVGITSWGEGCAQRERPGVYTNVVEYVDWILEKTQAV
Sequence (P03951 19-387 partner): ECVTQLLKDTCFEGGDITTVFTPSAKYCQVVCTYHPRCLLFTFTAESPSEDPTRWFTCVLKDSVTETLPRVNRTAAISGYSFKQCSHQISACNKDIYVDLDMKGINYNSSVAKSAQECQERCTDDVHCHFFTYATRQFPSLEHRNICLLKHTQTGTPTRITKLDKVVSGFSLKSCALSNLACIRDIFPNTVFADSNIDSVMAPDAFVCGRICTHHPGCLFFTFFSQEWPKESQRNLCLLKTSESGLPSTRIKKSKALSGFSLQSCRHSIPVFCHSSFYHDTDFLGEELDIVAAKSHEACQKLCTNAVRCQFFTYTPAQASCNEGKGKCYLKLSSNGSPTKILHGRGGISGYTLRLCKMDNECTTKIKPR
assay: Factor XIa chromogenic substrate (S-2366) inhibition assay
Format: biochemical
measurementContext: substrate S-2366, activity ranges, Table A
pKi: −log10 of the molar value. Structures can show the parent of a compound that is named as a salt.

Below, 6 compounds whose answers are already recorded.
compound	tgt	pKi
CN1CCN(c2cccc3c2CCN(C(=O)/C=C/c2c(-n4cnnn4)ccc(Cl)c2F)C3C(=O)Nc2ccc(C(=O)O)cc2)CC1 (stereo not drawn)	purified human Factor XIa (Homo sapiens (Human))	> 8.30
O=C(O)c1ccc(NC(=O)C2c3cccc(N4CCC(N5CCCCC5)CC4)c3CCN2C(=O)/C=C/c2c(-n3cnnn3)ccc(Cl)c2F)cc1 (racemic)	purified human Factor XIa (Homo sapiens (Human))	> 8.30
CCOC(=O)c1ccc(NC(=O)[C@@H]2c3cccc(N4CCCCC4=O)c3CCN2C(=O)/C=C/c2c(-n3cnnn3)ccc(Cl)c2F)cc1	purified human Factor XIa (Homo sapiens (Human))	8.00 to 8.30
O=C(N[C@H]1CC[C@H](C(=O)O)CC1)C1c2cccc(N3CCC(N4CCCC4)CC3)c2CCN1C(=O)/C=C/c1c(-n2cnnn2)ccc(Cl)c1F (mixture of isomers)	purified human Factor XIa (Homo sapiens (Human))	8.00 to 8.30
CC(=O)c1ccc(Cl)c(F)c1/C=C/C(=O)N1CCc2c(cccc2N2CCCCC2=O)[C@H]1C(=O)Nc1ccc(C(=O)O)cc1	purified human Factor XIa (Homo sapiens (Human))	> 8.30
CNC(=O)c1ccc(NC(=O)C2c3cccc(N4CCNCC4)c3CCN2C(=O)/C=C/c2cc(Cl)c(F)cc2-n2cnnn2)cc1 (racemic)	purified human Factor XIa (Homo sapiens (Human))	6.30 to 7.00

Would you mind listing pKi for each of the following compounds?
1. CCOC(=O)CCNC(=O)N1CCN(c2cccc3c2CCN(C(=O)/C=C/c2cc(Cl)ccc2-n2cnnn2)C3C(=O)Nc2ccc(NC(=O)OC)cc2)CC1 (stereo not drawn)
2. CC(=O)c1ccc(Cl)c(F)c1C=CC(=O)N1CCc2c(cccc2N2CCC3(CCN(C)C3=O)CC2)C1C(=O)Nc1ccc(C(=O)O)cc1 (stereo not drawn) [Example 222]
3. CC(C)(C)OC(=O)c1ccc(NC(=O)[C@@H]2c3cccc(N4CCOCC4=O)c3CCN2C(=O)/C=C/c2c(-n3cnnn3)ccc(Cl)c2F)cc1
4. CC(C)(C)OC(=O)CCNC(=O)C1c2cccc(N3CCC(N4CCCC4)CC3)c2CCN1C(=O)/C=C/c1c(-n2cnnn2)ccc(Cl)c1F (racemic)

Outgoing:
["8.00 to 8.30", "> 8.30", "6.30 to 7.00", "6.30 to 7.00"]

Batch request: pKi for each of the following compounds.
1. CC1(C)Cc2c(cccc2N2CCCCC2)[C@@H](C(=O)Nc2ccc(C(=O)O)cc2)N1C(=O)/C=C/c1c(-n2cnnn2)ccc(Cl)c1F
2. CC(C)COC(=O)c1ccc(NC(=O)C2c3cccc(N4CCC(N5CCCC5)CC4)c3CCN2C(=O)/C=C/c2c(-n3cnnn3)ccc(Cl)c2F)cc1 (racemic)
3. CCOC(=O)c1cc(C)n(-c2cccc3c2CCN(C(=O)/C=C/c2c(-n4cnnn4)ccc(Cl)c2F)C3C(=O)Nc2ccc(F)cc2)n1 (stereo not drawn)
4. COC(=O)c1ccc(NC(=O)[C@@H]2c3cccc(N4CCC5(CC4)OCCO5)c3CCN2C(=O)/C=C/c2c(-n3cnnn3)ccc(Cl)c2F)cc1
5. CC1(C)Cc2c(cccc2N2CCNCC2)C(C(=O)Nc2ccc(C(=O)O)cc2)N1C(=O)/C=C/c1c(-n2cnnn2)ccc(Cl)c1F (stereo not drawn) [Example 78, bis-TFA Salt]

Outgoing:
1: > 8.30; 2: > 8.30; 3: 6.30 to 7.00; 4: > 8.30; 5: > 8.30
